Reference for the values: ChEMBL document CHEMBL4190262

Biological target: Beta-galactosidase (Aspergillus oryzae) (UniProt B7VU80)
Sequence (B7VU80 as listed by the source): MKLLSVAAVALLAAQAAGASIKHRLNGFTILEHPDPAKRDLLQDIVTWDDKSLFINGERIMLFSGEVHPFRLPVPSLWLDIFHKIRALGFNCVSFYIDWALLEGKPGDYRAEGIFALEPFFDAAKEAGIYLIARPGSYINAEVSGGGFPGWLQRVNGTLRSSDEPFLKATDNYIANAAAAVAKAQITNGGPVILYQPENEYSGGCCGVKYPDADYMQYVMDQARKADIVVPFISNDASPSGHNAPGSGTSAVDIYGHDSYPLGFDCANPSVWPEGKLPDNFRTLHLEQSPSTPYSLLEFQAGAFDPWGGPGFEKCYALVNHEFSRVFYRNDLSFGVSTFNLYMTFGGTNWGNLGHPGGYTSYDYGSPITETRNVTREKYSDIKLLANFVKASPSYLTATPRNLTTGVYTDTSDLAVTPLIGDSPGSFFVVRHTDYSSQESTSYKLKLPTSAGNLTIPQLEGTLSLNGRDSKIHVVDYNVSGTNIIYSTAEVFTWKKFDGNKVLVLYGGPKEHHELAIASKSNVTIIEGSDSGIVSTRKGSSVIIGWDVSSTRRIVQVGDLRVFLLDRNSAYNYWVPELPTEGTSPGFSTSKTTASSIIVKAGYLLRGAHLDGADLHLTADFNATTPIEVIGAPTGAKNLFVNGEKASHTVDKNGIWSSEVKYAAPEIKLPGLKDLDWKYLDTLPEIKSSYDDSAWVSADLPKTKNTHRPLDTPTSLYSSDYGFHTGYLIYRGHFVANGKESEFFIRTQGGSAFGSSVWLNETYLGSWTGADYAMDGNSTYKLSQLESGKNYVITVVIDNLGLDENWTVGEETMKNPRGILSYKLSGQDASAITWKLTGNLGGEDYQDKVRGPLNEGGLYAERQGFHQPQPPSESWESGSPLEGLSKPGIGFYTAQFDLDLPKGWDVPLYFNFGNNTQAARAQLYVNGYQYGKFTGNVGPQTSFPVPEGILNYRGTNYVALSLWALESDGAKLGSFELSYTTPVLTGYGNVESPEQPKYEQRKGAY
Assay: Inhibition of Aspergillus oryzae beta-galactosidase at 1 mM using p-nitrophenyl glycopyranoside preincubated for 5 mins followed by substrate addition measured after 20 mins by visible absorption spectroscopic method relative to control
Activity calls are given as the source filed them. No cut-off for these calls is given here.
reportedProperty: inhibition

Completed entries (count: 10):
{"structureAsSmiles": "[N-]=[N+]=NC[C@@H]1NC[C@@H](O)[C@H]1O", "testedTarget": "Beta-galactosidase (Aspergillus oryzae) (UniProt B7VU80)", "inhibition": "inactive"}
{"structureAsSmiles": "O[C@@H]1[C@H](O)CN[C@H]1CNC(=S)Nc1ccccc1", "testedTarget": "Beta-galactosidase (Aspergillus oryzae) (UniProt B7VU80)", "inhibition": "inactive"}
{"structureAsSmiles": "O[C@@H]1[C@@H](c2cn(Cc3ccccc3)nn2)NC[C@@H]1O", "testedTarget": "Beta-galactosidase (Aspergillus oryzae) (UniProt B7VU80)", "inhibition": "inactive"}
{"structureAsSmiles": "O=C(NC[C@@H]1NC[C@@H](O)[C@H]1O)c1ccccc1", "testedTarget": "Beta-galactosidase (Aspergillus oryzae) (UniProt B7VU80)", "inhibition": "inactive"}
{"structureAsSmiles": "O[C@@H]1[C@H](O)CN[C@@H]1CCn1cc(-c2ccccc2)nn1", "testedTarget": "Beta-galactosidase (Aspergillus oryzae) (UniProt B7VU80)", "inhibition": "78%"}
{"structureAsSmiles": "[N-]=[N+]=NC[C@H]1NC[C@@H](O)[C@H]1O", "testedTarget": "Beta-galactosidase (Aspergillus oryzae) (UniProt B7VU80)", "inhibition": "50%"}
{"structureAsSmiles": "O[C@H]1[C@@H](O)CN[C@@H]1Cn1cc(-c2ccccc2)nn1", "testedTarget": "Beta-galactosidase (Aspergillus oryzae) (UniProt B7VU80)", "inhibition": "inactive"}
{"structureAsSmiles": "O[C@@H]1[C@H](O)CN[C@@H]1c1cn(Cc2ccccc2)nn1", "testedTarget": "Beta-galactosidase (Aspergillus oryzae) (UniProt B7VU80)", "inhibition": "inactive"}
{"structureAsSmiles": "O[C@@H]1[C@H](O)CN[C@@H]1Cn1cc(-c2ccccc2)nn1", "testedTarget": "Beta-galactosidase (Aspergillus oryzae) (UniProt B7VU80)", "inhibition": "41%"}
{"structureAsSmiles": "O[C@@H]1[C@H](O)CN[C@H]1c1cn(Cc2ccccc2)nn1", "testedTarget": "Beta-galactosidase (Aspergillus oryzae) (UniProt B7VU80)", "inhibition": "inactive"}

Now, please, on to the next molecule.
Would you kindly share the measured inhibition for `O[C@@H]1[C@H](O)CN[C@H]1Cn1cc(-c2ccccc2)nn1` ?
inactive

###

Target sequence: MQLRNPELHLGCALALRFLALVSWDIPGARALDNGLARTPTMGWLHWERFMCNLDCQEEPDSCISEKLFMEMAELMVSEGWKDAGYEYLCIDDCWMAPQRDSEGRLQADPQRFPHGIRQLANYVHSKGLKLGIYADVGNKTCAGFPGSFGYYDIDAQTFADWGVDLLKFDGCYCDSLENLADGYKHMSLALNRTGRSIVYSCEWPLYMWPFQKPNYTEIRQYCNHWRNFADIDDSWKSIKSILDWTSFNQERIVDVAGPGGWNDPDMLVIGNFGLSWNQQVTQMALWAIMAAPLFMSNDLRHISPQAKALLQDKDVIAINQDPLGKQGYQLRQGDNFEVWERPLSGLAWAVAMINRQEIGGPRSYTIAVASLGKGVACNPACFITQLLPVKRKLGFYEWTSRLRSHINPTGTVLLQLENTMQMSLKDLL
Record form. Attribute: IC50. Fill in for each entry.
Give bare numbers, in µM.

{"structureAsSmiles": "OCc1ccc(-c2cn(C[C@H]3NC[C@@H](O)[C@H]3O)nn2)cc1", "IC50 (µM)": 159}

Now, please, on to the next molecule.
Would you kindly share the measured IC50 for `COc1ccc(-c2cn(C[C@H]3NC[C@@H](O)[C@H]3O)nn2)cc1` ?
185
